Measured concentration, listed per entry.
test: Final plasma concentration after intravenous infusion at 5 ug/kg/min dose; assay type: ADME, cell-free; settings: 0.005 mg/kg, read-out: Final plasma concentration
METRIC: concentration (nM)

1) Cc1nc(N)ccc1CNC(=O)Cn1c(C)cnc(NCCc2ccccc2)c1=O [L-375378] | 238
2) Cc1nc(N)ccc1CNC(=O)Cn1c(C)ccc(NS(=O)(=O)Cc2ccccc2)c1=O [L-374087] | 221

----------
test: time required for maximum concentration in dogs at 1 mg/kg dose upon oral administration; format: ADME, organism-based, Canis lupus familiaris; set-up: dose 1 mg/kg, route oral; details: dog, in vivo
METRIC: Tmax (min)

1) Cc1nc(N)ccc1CNC(=O)Cn1c(C)cnc(N[C@H](C)Cc2ccccc2)c1=O | 25
2) Cc1nc(N)ccc1CNC(=O)Cn1c(C)ccc(NS(=O)(=O)Cc2ccccc2)c1=O [L-374087] | 75

----------
Each entry below lists one item and its recorded Cmax value.
test: Maximum plasma concentration in dogs at 1 mg/kg dose upon oral administration; type: ADME, organism-based, Canis lupus familiaris; design: dose 1 mg/kg, route oral; details: dog
METRIC: Cmax (nM)

1) Cc1nc(N)ccc1CNC(=O)Cn1c(C)ccc(NS(=O)(=O)Cc2ccccc2)c1=O | 990
2) Cc1nc(N)ccc1CNC(=O)Cn1c(C)cnc(N[C@H](C)Cc2ccccc2)c1=O | 600

----------
assay: Half-life in dogs at 0.5 mg/kg dose upon oral administration; type: ADME, organism-based, Canis lupus familiaris; set-up: dose 0.5 mg/kg, route oral; conditions: dog, in vivo
METRIC: half-life (h)

1) Cc1nc(N)ccc1CNC(=O)Cn1c(C)cnc(NCCc2ccccc2)c1=O [L-375378] | 3.85

----------
test: Area under curve(AUC) value of the compound in dogs at 1 mg/kg dose upon oral administration; format: ADME, organism-based, Canis lupus familiaris; set-up: dose 1 mg/kg, route oral; settings: dog, in vivo
METRIC: AUC (µM·h)

1) Cc1nc(N)ccc1CNC(=O)Cn1c(C)cnc(N[C@H](C)Cc2ccccc2)c1=O | 1.85

----------
molecular target: Prothrombin (Homo sapiens)
Parameter: Ki. Scope: all listed entries.
METRIC: Ki (nM)

1) Cc1nc(N)ccc1CNC(=O)Cn1c(C)cnc(NCCc2ccccc2)c1=O [L-375378] | 0.8
2) Cc1nc(N)ccc1CNC(=O)Cn1c(C)cnc(N[C@@H](C)Cc2ccccc2)c1=O | 22
3) Cc1cnc(NCCc2ccccc2)c(=O)n1CC(=O)NCc1ccc(N)nc1 | 8.3
4) Cc1nc(N)ccc1CNC(=O)Cn1c(C)cnc(N[C@H](C)Cc2ccccc2)c1=O | 0.52

----------
test: time required for maximum concentration in dogs at 0.5 mg/kg dose upon oral administration; assay type: ADME, organism-based, Canis lupus familiaris; set-up: dose 0.5 mg/kg, route oral; conditions: dog, in vivo
METRIC: Tmax (min)

1) Cc1nc(N)ccc1CNC(=O)Cn1c(C)cnc(NCCc2ccccc2)c1=O [L-375378] | 52.5

----------
The compounds listed here are annotated with their 2x APTT.
experiment: in vitro anticoagulant potency (2x APTT) against Human plasma.; type: functional
METRIC: 2x APTT (nM)

1. Cc1cnc(NCCc2ccccc2)c(=O)n1CC(=O)NCc1ccc(N)nc1 | 2100
2. Cc1nc(N)ccc1CNC(=O)Cn1c(C)c(Cl)nc(NCCc2ccccc2)c1=O | 5470
3. Cc1nc(N)ccc1CNC(=O)Cn1c(C)cnc(N[C@H](C)Cc2ccccc2)c1=O | 350
4. Cc1nc(N)ccc1CNC(=O)Cn1c(C)ccc(NS(=O)(=O)Cc2ccccc2)c1=O | 210
5. Cc1nc(N)ccc1CNC(=O)Cn1c(C)cnc(NCCc2ccccc2)c1=O | 410
6. Cc1cc(N)nc(C)c1CNC(=O)Cn1c(C)cnc(NCCc2ccccc2)c1=O | 420

----------
assay: Final plasma concentration after intravenous infusion; format: ADME, cell-free; conditions: read-out: Final plasma concentration
Below, each entry is listed with its recorded concentration.
METRIC: concentration

1) Cc1nc(N)ccc1CNC(=O)Cn1c(C)ccc(NS(=O)(=O)Cc2ccccc2)c1=O | 586 nM
2) Cc1nc(N)ccc1CNC(=O)Cn1c(C)cnc(N[C@H](C)Cc2ccccc2)c1=O | 554 nM
3) Cc1nc(N)ccc1CNC(=O)Cn1c(C)cnc(NCCc2ccccc2)c1=O | 445 nM
4) Cc1cc(N)nc(C)c1CNC(=O)Cn1c(C)cnc(NCCc2ccccc2)c1=O | 224 nM

----------
target: Serine protease 1 (Homo sapiens, UniProt P07477)
Sequence (P07477 whole entry): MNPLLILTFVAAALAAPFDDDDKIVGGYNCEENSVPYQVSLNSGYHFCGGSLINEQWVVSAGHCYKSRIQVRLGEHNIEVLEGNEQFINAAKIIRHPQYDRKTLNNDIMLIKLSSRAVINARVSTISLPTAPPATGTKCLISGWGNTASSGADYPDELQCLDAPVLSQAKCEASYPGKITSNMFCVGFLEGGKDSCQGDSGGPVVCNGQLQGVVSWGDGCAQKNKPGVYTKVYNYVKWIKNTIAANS
Binary label based on Ki with cut-off 3000 nM: below gives Met, not below gives Not met.

1) Cc1nc(N)ccc1CNC(=O)Cn1c(C)cnc(N[C@H](C)Cc2ccccc2)c1=O | Met
2) Cc1nc(N)ccc1CNC(=O)Cn1c(C)cnc(NC(C)(C)Cc2ccccc2)c1=O | Met
3) Cc1nc(N)ccc1CNC(=O)Cn1c(C)ccc(NS(=O)(=O)Cc2ccccc2)c1=O | Not met
4) Cc1nc(N)ccc1CNC(=O)Cn1c(C)cnc(N[C@@H](C)Cc2ccccc2)c1=O | Not met
5) Cc1cnc(NCCc2ccccc2)c(=O)n1CC(=O)NCc1ccc(N)nc1 | Met
